- Experimental target: human SGLT1 (Homo sapiens, UniProt P13866)
- Procedure summary: Assay for inhibitory effects on human SGLT1 activity (uptake of methyl-α-D-glucopyranoside in CS1-5-11D cells)
- Details: CHO-K1 cells stably expressing human SGLT1 (CS1-5-11D); 1 mM α-MG uptake, 37° C., 1 hour
Reported property: IC50 (nM)

Below, 3 compounds whose answers are already recorded.
# Compound smiles, IC50, nM
rows = [
    ("Cc1cc(OCCNC(CO)CO)ccc1Cc1c(O[C@@H]2O[C@H](CO)[C@@H](O)[C@H](O)[C@H]2O)n[nH]c1C(C)C", 138),
    ("Cc1cc(OCCNC(=O)NC(C)(C)C(N)=O)ccc1Cc1c(O[C@@H]2O[C@H](CO)[C@@H](O)[C@H](O)[C@H]2O)n[nH]c1C(C)C", 166),
    ("Cc1cc(OCCCNC(=O)NCCO)ccc1Cc1c(O[C@@H]2O[C@H](CO)[C@@H](O)[C@H](O)[C@H]2O)n[nH]c1C(C)C", 257),
]

A: CC(C)c1[nH]nc(O[C@@H]2O[C@H](CO)[C@@H](O)[C@H](O)[C@H]2O)c1Cc1ccc(OCCCNC(=O)CN)cc1
B: Cc1cc(OCCNC(=N)N)ccc1Cc1c(O[C@@H]2O[C@H](CO)[C@@H](O)[C@H](O)[C@H]2O)n[nH]c1C(C)C
**Query** Just curious, which one has the larger IC50 reading, A or B ? Your choice should be expressed through its label.
**Result** A

I: Cc1cc(OCCCNCC(N)=O)ccc1Cc1c(O[C@@H]2O[C@H](CO)[C@@H](O)[C@H](O)[C@H]2O)n[nH]c1C(C)C
II: CC(C)c1[nH]nc(O[C@@H]2O[C@H](CO)[C@@H](O)[C@H](O)[C@H]2O)c1Cc1ccc(OCCCNC(C)(C)CO)cc1
**Query** Just curious, which one has the larger IC50 reading, I or II ? Your choice should be expressed through its label.
**Result** II
(II: 199 nM, I: 68 nM)

###

- Experimental target: human SGLT1 (Homo sapiens, UniProt P13866)
- Sequence (P13866 1-664): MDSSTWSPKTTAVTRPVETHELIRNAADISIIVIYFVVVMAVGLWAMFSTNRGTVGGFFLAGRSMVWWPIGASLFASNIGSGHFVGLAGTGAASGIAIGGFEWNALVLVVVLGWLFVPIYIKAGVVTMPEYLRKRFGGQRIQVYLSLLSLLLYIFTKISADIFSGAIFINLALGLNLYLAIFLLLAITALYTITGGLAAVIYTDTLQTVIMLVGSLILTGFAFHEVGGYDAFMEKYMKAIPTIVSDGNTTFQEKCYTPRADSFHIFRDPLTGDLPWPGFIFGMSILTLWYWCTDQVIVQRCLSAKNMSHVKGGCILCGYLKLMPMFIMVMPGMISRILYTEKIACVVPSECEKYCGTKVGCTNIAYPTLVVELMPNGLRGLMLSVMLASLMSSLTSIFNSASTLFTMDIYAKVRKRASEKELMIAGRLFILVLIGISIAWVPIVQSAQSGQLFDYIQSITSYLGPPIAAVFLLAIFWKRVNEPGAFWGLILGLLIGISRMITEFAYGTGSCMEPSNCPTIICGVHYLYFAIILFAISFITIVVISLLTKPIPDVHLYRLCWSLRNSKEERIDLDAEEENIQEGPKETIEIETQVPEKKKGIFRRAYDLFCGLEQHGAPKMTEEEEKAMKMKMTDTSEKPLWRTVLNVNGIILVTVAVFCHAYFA
- Procedure summary: Assay for inhibitory effects on human SGLT1 activity (uptake of methyl-α-D-glucopyranoside in CS1-5-11D cells)
- Details: CHO-K1 cells stably expressing human SGLT1 (CS1-5-11D); 1 mM α-MG uptake, 37° C., 1 hour
Reported property: IC50 (nM)

Below, 3 compounds whose answers are already recorded.
# Compound smiles, IC50 (nM)
measured = [
    ("CC(C)c1[nH]nc(O[C@@H]2O[C@H](CO)[C@@H](O)[C@H](O)[C@H]2O)c1Cc1ccc(OCCCNC(=O)NC(CO)CO)cc1", 233),
    ("Cc1cc(OCCNCCC(N)=O)ccc1Cc1c(O[C@@H]2O[C@H](CO)[C@@H](O)[C@H](O)[C@H]2O)n[nH]c1C(C)C", 159),
    ("CC(C)c1[nH]nc(O[C@@H]2O[C@H](CO)[C@@H](O)[C@H](O)[C@H]2O)c1Cc1ccc(OCCCNCc2cccnc2)cc1", 178),
]

a: CNC(=NC#N)NCCCOc1ccc(Cc2c(O[C@@H]3O[C@H](CO)[C@@H](O)[C@H](O)[C@H]3O)n[nH]c2C(C)C)cc1
b: Cc1cc(OCCCNCCO)ccc1Cc1c(O[C@@H]2O[C@H](CO)[C@@H](O)[C@H](O)[C@H]2O)n[nH]c1C(C)C
c: CC(C)c1[nH]nc(O[C@@H]2O[C@H](CO)[C@@H](O)[C@H](O)[C@H]2O)c1Cc1ccc(OCCCNC(=NC#N)NCCO)cc1
**Query** Falling order of IC50, please. # list labels per requested ordering
**Result** a, c, b

###

- Experimental target: human SGLT1 (Homo sapiens)
- Procedure summary: Assay for inhibitory effects on human SGLT1 activity (uptake of methyl-α-D-glucopyranoside in CS1-5-11D cells)
- Details: CHO-K1 cells stably expressing human SGLT1 (CS1-5-11D); 1 mM α-MG uptake, 37° C., 1 hour
Reported property: IC50 (nM)

Below, 2 compounds whose answers are already recorded.
# Compound smiles, Experimental target, IC50 (nM)
rows = [
    ("CC(C)c1[nH]nc(O[C@@H]2O[C@H](CO)[C@@H](O)[C@H](O)[C@H]2O)c1Cc1ccc(OCCCNC(C)(C)C(N)=O)cc1", "human SGLT1 (Homo sapiens)", 54),
    ("CC(C)c1[nH]nc(O[C@@H]2O[C@H](CO)[C@@H](O)[C@H](O)[C@H]2O)c1Cc1ccc(OCCCNS(N)(=O)=O)cc1", "human SGLT1 (Homo sapiens)", 246),
]

1: Cc1cc(OCCCNC(=N)N)ccc1Cc1c(O[C@@H]2O[C@H](CO)[C@@H](O)[C@H](O)[C@H]2O)n[nH]c1C(C)C
2: CC(C)c1[nH]nc(O[C@@H]2O[C@H](CO)[C@@H](O)[C@H](O)[C@H]2O)c1Cc1ccc(OCCCN)cc1
3: CC(C)c1[nH]nc(O[C@@H]2O[C@H](CO)[C@@H](O)[C@H](O)[C@H]2O)c1Cc1ccc(OCCCNC(=O)NC(C)(C)CO)cc1
4: Cc1cc(OCCCN2CCN(CCO)CC2)ccc1Cc1c(O[C@@H]2O[C@H](CO)[C@@H](O)[C@H](O)[C@H]2O)n[nH]c1C(C)C
**Query** Order the records, beginning with the lowest IC50 and ending with the highest. # list labels per requested ordering
**Result** 3, 1, 4, 2

###

- System: diabetic rats
- Procedure summary: Assay for inhibitory effects on blood glucose level increase in rats (liquid meal tolerance test)
- Type: in vivo, rat
- Details: 0.5 hour after the drug administration, test compound 1 mg/kg orally, liquid meal 17.25 kcal/kg, mean±S.E.
Reported property: Plasma glucose concentration 0.5 h (mg/dL)
Enter your answer as a number in mg/dL; do not include the unit.

Below, 6 compounds whose answers are already recorded.
# Compound, Plasma glucose concentration 0.5 h / mg/dL
measured = [
    ("Cc1cc(OCCCNCC(N)=O)ccc1Cc1c(O[C@@H]2O[C@H](CO)[C@@H](O)[C@H](O)[C@H]2O)n[nH]c1C(C)C [Example 45]", 169),
    ("CC(C)c1[nH]nc(O[C@@H]2O[C@H](CO)[C@@H](O)[C@H](O)[C@H]2O)c1Cc1ccc(OCCCN)cc1 [Example 6]", 126),
    ("Cc1cc(OCCCNC(CO)CO)ccc1Cc1c(O[C@@H]2O[C@H](CO)[C@@H](O)[C@H](O)[C@H]2O)n[nH]c1C(C)C [Example 59]", 143),
    ("Cc1cc(OCCCNCCC(N)=O)ccc1Cc1c(O[C@@H]2O[C@H](CO)[C@@H](O)[C@H](O)[C@H]2O)n[nH]c1C(C)C [Example 52]", 163),
    ("Cc1cc(OCCNC(=N)N)ccc1Cc1c(O[C@@H]2O[C@H](CO)[C@@H](O)[C@H](O)[C@H]2O)n[nH]c1C(C)C [Example 56]", 146),
    ("CC(C)c1[nH]nc(O[C@@H]2O[C@H](CO)[C@@H](O)[C@H](O)[C@H]2O)c1Cc1ccc(OCCCNC(=O)NC(C)(C)CO)cc1 [Example 24]", 210),
]

**Query** # input compound: CC(C)c1[nH]nc(O[C@@H]2O[C@H](CO)[C@@H](O)[C@H](O)[C@H]2O)c1Cc1ccc(OCCCNC(=O)NC(C)(CO)CO)cc1 [Example 21] ; wanted: its Plasma glucose concentration 0.5 h
**Result** 211

**Query** # input compound: CC(C)c1[nH]nc(O[C@@H]2O[C@H](CO)[C@@H](O)[C@H](O)[C@H]2O)c1Cc1ccc(OCCCNC(=O)CN)cc1 [Example 13] ; wanted: its Plasma glucose concentration 0.5 h
**Result** 127

**Query** # input compound: Cc1cc(OCCCN2CCN(CCO)CC2)ccc1Cc1c(O[C@@H]2O[C@H](CO)[C@@H](O)[C@H](O)[C@H]2O)n[nH]c1C(C)C [Example 35] ; wanted: its Plasma glucose concentration 0.5 h
**Result** 188

**Query** # input compound: CC(C)c1[nH]nc(O[C@@H]2O[C@H](CO)[C@@H](O)[C@H](O)[C@H]2O)c1Cc1ccc(OCCCNC(=NC#N)NCCO)cc1 [Example 37] ; wanted: its Plasma glucose concentration 0.5 h
**Result** 231
